Every entry's value here was drawn from patent US20240327429A1.

Target: human NOX4 (hNOX4) (Homo sapiens, UniProt Q9NPH5)
Sequence (Q9NPH5 1-578): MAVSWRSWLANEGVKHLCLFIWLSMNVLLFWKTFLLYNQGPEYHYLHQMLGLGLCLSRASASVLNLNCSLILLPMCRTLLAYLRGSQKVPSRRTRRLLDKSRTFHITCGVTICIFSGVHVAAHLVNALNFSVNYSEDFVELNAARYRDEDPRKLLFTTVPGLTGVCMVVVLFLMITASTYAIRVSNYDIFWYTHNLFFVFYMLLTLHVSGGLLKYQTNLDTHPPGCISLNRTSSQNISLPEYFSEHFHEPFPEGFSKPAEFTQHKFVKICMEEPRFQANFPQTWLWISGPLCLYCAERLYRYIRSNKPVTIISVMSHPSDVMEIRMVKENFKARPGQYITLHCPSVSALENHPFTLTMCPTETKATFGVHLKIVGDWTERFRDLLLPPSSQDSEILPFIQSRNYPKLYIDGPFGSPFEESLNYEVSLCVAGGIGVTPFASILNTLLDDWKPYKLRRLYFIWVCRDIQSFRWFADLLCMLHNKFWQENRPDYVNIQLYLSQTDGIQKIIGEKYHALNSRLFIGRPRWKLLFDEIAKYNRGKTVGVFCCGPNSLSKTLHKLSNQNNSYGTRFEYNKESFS
Sequence (P13498 2-195 partner limits assumed): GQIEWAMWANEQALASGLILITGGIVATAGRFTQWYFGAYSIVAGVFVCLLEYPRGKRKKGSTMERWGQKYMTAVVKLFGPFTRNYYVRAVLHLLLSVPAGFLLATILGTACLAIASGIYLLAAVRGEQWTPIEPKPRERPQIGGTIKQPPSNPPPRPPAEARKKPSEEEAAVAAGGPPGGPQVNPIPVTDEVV
measurement kind: pIC50
Field pIC50 (float): negative decimal logarithm of the concentration in molar.

Lookup: Item under review: O=c1c2scnc2nc(SCc2ccc(Cl)cc2)n1-c1cnc(O)c(F)c1 [Example 33] . Reported pIC50?
Found: 7.54

Lookup: Item: O=c1c2scnc2nc(SCc2ccc(C(F)(F)F)cc2)n1-c1ccc(O)nc1 [Example 27]
Found: 6.87
